Where do these numbers come from? They come from patent US20230322776A1.

Test system: A375 cells (V600E mutated BRAF), ERK phospho-T202/Y204
Assay: HTRF assay for P-ERK determination in A375 cells (BRAF inhibition)
Type: cell-based
Conditions: Homo sapiens, A-375, 1 hour drug incubation, DMSO = 100%, 10 μM Dabrafenib = 0%, top concentration 10 μM, read-out: P-ERK_A375: IC50
reported.endpoint: pIC50
Here pIC50 is given on a logarithmic scale as minus log10 of the concentration in mol/L.

A selection of reference data follows.
molecule	pIC50
COC(=O)Cc1cccc(CCNc2ncc3cc(-c4c(F)ccc(NS(=O)(=O)N5CC[C@@H](F)C5)c4F)c(=O)n(C)c3n2)c1	7.41
Cn1c(=O)c(-c2c(F)ccc(NS(=O)(=O)N3CC[C@@H](F)C3)c2F)cc2cnc(NCCc3ccccc3)nc21	8.22
CC(=O)N1CCC(CCCNc2ncc3cc(-c4c(F)ccc(NS(=O)(=O)N5CC[C@@H](F)C5)c4F)c(=O)n(C)c3n2)CC1	7.48

response.value for Cn1c(=O)c(-c2c(F)ccc(NS(=O)(=O)N3CC[C@@H](F)C3)c2F)cc2cnc(NCCN3CCN(C(=O)OC(C)(C)C)CC3)nc21 (field: pIC50) = 7.57

The recorded pIC50 for CCN(C)S(=O)(=O)Nc1ccc(F)c(-c2cc3cnc(NCCCNC)nc3n(C)c2=O)c1F.Cl [Example 17, hydrochloride] is 5.90

Memo: CC(=O)N1CC(Nc2ncc3cc(-c4c(F)ccc(NS(=O)(=O)N5CC[C@@H](F)C5)c4F)c(=O)n(C)c3n2)C1 , reported pIC50: 6.74

----------
IC50 for assorted molecules
Tested on: A375 cells (V600E mutated BRAF), ERK phospho-T202/Y204
Test: HTRF assay for P-ERK determination in A375 cells (BRAF inhibition)
Assay type: cell-based
Settings: Homo sapiens, A-375, 1 hour drug incubation, DMSO = 100%, 10 μM Dabrafenib = 0%, top concentration 10 μM, read-out: P-ERK_A375: IC50
Answer format: numeric, nM implied, no suffix.

molecule	measured
CC(=O)N(C)Cc1cccc(CCNc2ncc3cc(-c4c(F)ccc(NS(=O)(=O)N5CC[C@@H](F)C5)c4F)c(=O)n(C)c3n2)c1	20.5
CC(=O)N1CCN(CCNc2ncc3cc(-c4c(F)ccc(NS(=O)(=O)N5CC[C@@H](F)C5)c4F)c(=O)n(C)c3n2)CC1	79.8
CCN(C)S(=O)(=O)Nc1ccc(F)c(-c2cc3cnc(NCCCN(C)C(C)=O)nc3n(C)c2=O)c1F	287
Cn1c(=O)c(-c2c(F)ccc(NS(=O)(=O)N3CC[C@@H](F)C3)c2F)cc2cnc(NCCc3ccc(CC(=O)OC(C)(C)C)cc3)nc21	64.2
Cl.Cn1c(=O)c(-c2c(F)ccc(NS(=O)(=O)N3CC[C@@H](F)C3)c2F)cc2cnc(NCCCC3CCNCC3)nc21 [Example 18, hydrochloride]	207

Now for the molecule whose IC50 we want.
Simply: Cn1c(=O)c(-c2c(F)ccc(NS(=O)(=O)C3CCCC3)c2F)cc2cnc(NCCC3CCN(C(=O)OC(C)(C)C)CC3)nc21 , A375 cells (V600E mutated BRAF), ERK phospho-T202/Y204, IC50 = 272

----------
System: A375 cells (V600E mutated BRAF), ERK phospho-T202/Y204
Experiment: HTRF assay for P-ERK determination in A375 cells (BRAF inhibition)
Type: cell-based
Conditions: Homo sapiens, A-375, 1 hour drug incubation, DMSO = 100%, 10 μM Dabrafenib = 0%, top concentration 10 μM, read-out: P-ERK_A375: IC50
reported.endpoint: IC50 (nM)
Give just the number in nM; leave the unit off.

Use these answered entries as a reference point.
molecule	IC50 (nM)
Cn1c(=O)c(-c2c(F)ccc(NS(=O)(=O)N3CC[C@@H](F)C3)c2F)cc2cnc(NCCCC(=O)OC(C)(C)C)nc21	13.1
Cn1c(=O)c(-c2c(F)ccc(NS(=O)(=O)N3CCCC3)c2F)cc2cnc(NCCC3CCN(C(=O)OC(C)(C)C)CC3)nc21	241
CCN(C)S(=O)(=O)Nc1ccc(F)c(-c2cc3cnc(NCCOCCOCCO)nc3n(C)c2=O)c1F	153
CN(C1CC1)S(=O)(=O)Nc1ccc(F)c(-c2cc3cnc(NCC4CC4)nc3n(C)c2=O)c1F	109
CC(=O)N[C@@H]1CC[C@@H](Nc2ncc3cc(-c4c(F)ccc(NS(=O)(=O)N5CC[C@@H](F)C5)c4F)c(=O)n(C)c3n2)C1 (racemic)	69
CC(=O)NCCOCCOCCn1c(=O)c(-c2c(F)ccc(NS(=O)(=O)N3CC[C@@H](F)C3)c2F)cc2cnc(NCC3CC3)nc21	844

CC(=O)NCCCCCNc1ncc2cc(-c3c(F)ccc(NS(=O)(=O)N4CC[C@@H](F)C4)c3F)c(=O)n(C)c2n1 has a reported IC50 of 44

Reported IC50 for CC(=O)N1CCc2ccc(CCNc3ncc4cc(-c5c(F)ccc(NS(=O)(=O)N6CC[C@@H](F)C6)c5F)c(=O)n(C)c4n3)cc2C1 was 15

Record summary for CC(=O)N1CCC(O)(CCNc2ncc3cc(-c4c(F)ccc(NS(=O)(=O)N5CC[C@@H](F)C5)c4F)c(=O)n(C)c3n2)CC1 : reported IC50 = 271

IC50 reading for CC(=O)N1CCC(NC(=O)CCCNc2ncc3cc(-c4c(F)ccc(NS(=O)(=O)N5CC[C@@H](F)C5)c4F)c(=O)n(C)c3n2)CC1 : 3170

Summary for this molecule, Cl.Cn1c(=O)c(-c2c(F)ccc(NS(=O)(=O)N3CC[C@@H](F)C3)c2F)cc2cnc(NCCOCCN)nc21 [Example 15, hydrochloride] : IC50 is 617

In plain terms, CC(=O)NCc1cccc(CCNc2ncc3cc(-c4c(F)ccc(NS(=O)(=O)N5CC[C@@H](F)C5)c4F)c(=O)n(C)c3n2)c1 has a documented IC50 of 11.5

Reported IC50 of Cn1c(=O)c(-c2c(F)ccc(NS(=O)(=O)N3CC[C@@H](F)C3)c2F)cc2cnc(NCCCc3ccccc3)nc21 : 42.6

Recorded IC50 (molecule Cl.Cn1c(=O)c(-c2c(F)ccc(NS(=O)(=O)N3CC[C@@H](F)C3)c2F)cc2cnc(NCCCC(=O)NC3CCNCC3)nc21 [Example 19, hydrochloride] ): 7210

----------
Listed here are molecules together with their documented Kd.
Target: BRAF (Homo sapiens, UniProt P15056)
Sequence (P15056 whole entry): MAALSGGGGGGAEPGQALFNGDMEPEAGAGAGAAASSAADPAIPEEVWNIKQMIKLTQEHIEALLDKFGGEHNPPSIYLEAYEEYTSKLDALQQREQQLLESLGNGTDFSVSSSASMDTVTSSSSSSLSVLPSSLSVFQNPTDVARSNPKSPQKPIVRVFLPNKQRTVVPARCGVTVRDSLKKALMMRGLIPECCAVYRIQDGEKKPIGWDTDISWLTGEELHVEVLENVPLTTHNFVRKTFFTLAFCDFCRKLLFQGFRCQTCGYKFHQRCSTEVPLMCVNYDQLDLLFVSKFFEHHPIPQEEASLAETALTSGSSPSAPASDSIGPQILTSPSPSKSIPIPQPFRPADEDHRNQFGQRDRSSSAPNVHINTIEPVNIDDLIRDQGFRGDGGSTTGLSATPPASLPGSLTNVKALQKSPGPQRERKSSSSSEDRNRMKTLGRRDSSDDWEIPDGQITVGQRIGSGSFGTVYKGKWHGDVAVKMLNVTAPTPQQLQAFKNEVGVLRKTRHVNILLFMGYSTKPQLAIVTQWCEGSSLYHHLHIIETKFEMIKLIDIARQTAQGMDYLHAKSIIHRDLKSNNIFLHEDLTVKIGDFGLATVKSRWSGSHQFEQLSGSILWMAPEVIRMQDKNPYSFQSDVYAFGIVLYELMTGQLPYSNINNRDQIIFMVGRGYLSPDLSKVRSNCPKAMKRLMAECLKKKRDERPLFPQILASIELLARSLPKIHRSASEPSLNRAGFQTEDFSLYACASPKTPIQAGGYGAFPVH
Assay: KD BRAF (Table 1; no method described)
Assay type: binding
Answer with the figure and its unit, nothing else.

Recorded result, CNCCCNc1ncc2cc(-c3c(F)ccc(NS(=O)(=O)N4CC[C@@H](F)C4)c3F)c(=O)n(C)c2n1.Cl [Example 16, hydrochloride] , Kd: 148 nM

# Kd (molecule: Cn1c(=O)c(-c2c(F)ccc(NS(=O)(=O)N3CC[C@@H](F)C3)c2F)cc2cnc(NCCc3ccccc3)nc21 ) is 7.9 nM

Consider Cn1c(=O)c(-c2c(F)ccc(NS(=O)(=O)N3CC[C@@H](F)C3)c2F)cc2cnc(NCCOc3ccccc3)nc21 . Its measured Kd is 35.7 nM

Reported Kd ( Cl.NCCOCCOCCn1c(=O)c(-c2c(F)ccc(NS(=O)(=O)N3CC[C@@H](F)C3)c2F)cc2cnc(NCC3CC3)nc21 [Example 39, hydrochloride] ) = 13.4 nM

The value of Kd measured for the molecule CN(C1CC1)S(=O)(=O)Nc1ccc(F)c(-c2cc3cnc(NCC4CC4)nc3n(C)c2=O)c1F turned out to be 84.9 nM

----------
Listing: log10 of EC50 of selected compounds
Tested on: HCT116 cells (WT BRAF), ERK phospho-T202/Y204
Assay: HTRF assay for P-ERK determination in HCT116 cells (BRAF activation, paradox)
Format: cell-based
Details: Homo sapiens, HCT-116; HCT116 cells, 1 hour drug incubation; activation relative to maximum Dabrafenib-mediated activation (100%); top concentration 10 μM; read-out: P-ERK_HCT-116: EC50—50PCT
Scale type: logarithmic (base 10). Underlying EC50 unit: µM.

compound	measured
Cn1c(=O)c(-c2c(F)ccc(NS(=O)(=O)N3CCCC3)c2F)cc2cnc(NCCC3CCN(C(=O)OC(C)(C)C)CC3)nc21 [Example 8]	0.99
CC(=O)N(C)CCCNc1ncc2cc(-c3c(F)ccc(NS(=O)(=O)N4CC[C@@H](F)C4)c3F)c(=O)n(C)c2n1 [Example 27]	0.26
CC(=O)N(C)Cc1cccc(CCNc2ncc3cc(-c4c(F)ccc(NS(=O)(=O)N5CC[C@@H](F)C5)c4F)c(=O)n(C)c3n2)c1 [Example 36]	0.44
CC(=O)N1CCC(CCNc2ncc3cc(-c4c(F)ccc(NS(=O)(=O)N5CC[C@@H](F)C5)c4F)c(=O)n(C)c3n2)CC1 [Example 20]	0.22

Could you now consider this next compound?
Reported log10 of EC50 ( Cn1c(=O)c(-c2c(F)ccc(NS(=O)(=O)N3CC[C@@H](F)C3)c2F)cc2cnc(NCCCc3ccccc3)nc21 [Example 5] ) = -0.40
